Listed next: entries and their corresponding TGI.
Tested on: SR leukemia
Test: NCI tumour cell line growth inhibition, 48 h

[
  {
    "Compound": "CC(C)N(c1cc2c(cc1F)c(=O)c(C(=O)O)cn2-c1ccc(N2CCN(C)CC2)cn1)C(C)C",
    "TGI": "> 100 µM"
  },
  {
    "Compound": "COC(=O)c1cc(C#N)[nH]c1-c1cccs1",
    "TGI": "> 100 µM"
  },
  {
    "Compound": "Cc1ccc(S(=O)(=O)n2cnc(CC(NC(=O)C3CCC(=O)N3C(=O)OCc3ccccc3)C(=O)N3CCCC3C(=O)NN)c2)cc1 (configuration not stated)",
    "TGI": "> 100 µM"
  }
]

Provide measured TGI value, entry: COc1ccc(NC(C)=O)cc1N1C(=O)/C(=C\c2cc(OC)c(OC)c(OC)c2)S(=O)(=O)C1c1ccccc1 (configuration not stated)
> 100 µM

Provide measured TGI value, entry: CC(Oc1ccc(Cl)cc1Cl)C(=O)NN1C(=O)CSC1c1ccc(Cl)cc1 (configuration not stated)
41.3 µM

Provide measured TGI value, entry: O=Cc1ccc2c(c1)CC1(C2)Cc2ccc(C=O)cc2C1
6.77 µM

Provide measured TGI value, entry: C/C(=C\c1c[nH]c2ccccc12)[N+](=O)[O-]
4.25 µM

Provide measured TGI value, entry: Cc1nc2ccc(N=NN(C)C)cc2[nH]1
> 100 µM

Provide measured TGI value, entry: NC(=S)N/N=C(/C(=O)Nc1nc2ccc([N+](=O)[O-])cc2s1)C1C(=O)NC(=S)NC1=O
> 100 µM
